System: SARS-CoV-2 (Omicron variant, B.1.1.529/BA.2 sublineage)
Assay: microbe, parasite or virus in culture
Type: cell-based
Conditions: Severe acute respiratory syndrome coronavirus 2, Vero C1008, 48 h, read-out: 50% Reduction in Viral RNA Copy (EC50)
Exercise: for every item that follows, state its recorded EC50.
Quick note: unit goes after the number.

Use these answered entries as a reference point.
[[record]]
compound = "Nc1ncnc2c1ncn2[C@@H]1O[C@H](CO)[C@@H](O)[C@@H]1O [Vidarabine, Arabinosyladenine]"
target = "SARS-CoV-2 (Omicron variant, B.1.1.529/BA.2 sublineage)"
meas_value = "3230 nM"

[[record]]
compound = "CC(C)C(=O)OC[C@H]1O[C@@H](n2ccc(NO)nc2=O)[C@H](O)[C@@H]1O [Molnupiravir, molnupiravir]"
target = "SARS-CoV-2 (Omicron variant, B.1.1.529/BA.2 sublineage)"
meas_value = "2730 nM"

[[record]]
compound = "CC(C)=CCNc1ncnc2c1ncn2[C@@H]1O[C@H](CO)[C@@H](O)[C@H]1O [Riboprine, N^6-(2-Isopentenyl)adenosine]"
target = "SARS-CoV-2 (Omicron variant, B.1.1.529/BA.2 sublineage)"
meas_value = "480 nM"

[[record]]
compound = "CC(C)Nc1nc2cc(Cl)c(Cl)cc2n1[C@H]1O[C@@H](CO)[C@H](O)[C@@H]1O [Maribavir, maribavir]"
target = "SARS-CoV-2 (Omicron variant, B.1.1.529/BA.2 sublineage)"
meas_value = "3200 nM"

[[record]]
compound = "OC[C@H]1O[C@@H](n2cnc3c(N[C@@H]4CCOC4)ncnc32)[C@H](O)[C@@H]1O [Tecadenoson, tecadenoson]"
target = "SARS-CoV-2 (Omicron variant, B.1.1.529/BA.2 sublineage)"
meas_value = "2950 nM"

[[record]]
compound = "O=c1[nH]cnc2c([C@@H]3N[C@H](CO)[C@@H](O)[C@H]3O)c[nH]c12 [Forodesine, forodesine]"
target = "SARS-CoV-2 (Omicron variant, B.1.1.529/BA.2 sublineage)"
meas_value = "730 nM"


Could you now consider this next compound?
The recorded EC50 for COc1nc(N)nc2c1ncn2[C@@H]1O[C@H](CO)[C@@H](O)[C@@H]1O [Nelarabine, nelarabine] is 1750 nM

###

Tested on: SARS-CoV-2 (Omicron variant, B.1.1.529/BA.2 sublineage)
Test: microbe, parasite or virus in culture
Format: cell-based
Settings: Severe acute respiratory syndrome coronavirus 2, Vero C1008, 48 h, read-out: 90% Reduction in Infectious Virus (EC90)
One threshold, 10 µM, splits the recorded EC90 values: lower ones are met, equal or higher ones are not met.

[[record]]
compound = "CC(C)Nc1nc2cc(Cl)c(Cl)cc2n1[C@H]1O[C@@H](CO)[C@H](O)[C@@H]1O [Maribavir, maribavir]"
target = "SARS-CoV-2 (Omicron variant, B.1.1.529/BA.2 sublineage)"
group_label = "not met"

[[record]]
compound = "CC(C)C(=O)OC[C@H]1O[C@@H](n2ccc(NO)nc2=O)[C@H](O)[C@@H]1O [Molnupiravir, molnupiravir]"
target = "SARS-CoV-2 (Omicron variant, B.1.1.529/BA.2 sublineage)"
group_label = "met"

[[record]]
compound = "OC[C@H]1O[C@@H](n2cnc3c(N[C@@H]4CCOC4)ncnc32)[C@H](O)[C@@H]1O [Tecadenoson, tecadenoson]"
target = "SARS-CoV-2 (Omicron variant, B.1.1.529/BA.2 sublineage)"
group_label = "not met"

[[record]]
compound = "Nc1ncnc2c1ncn2[C@@H]1O[C@H](CO)[C@@H](O)[C@@H]1O [Vidarabine, Arabinosyladenine]"
target = "SARS-CoV-2 (Omicron variant, B.1.1.529/BA.2 sublineage)"
group_label = "not met"

[[record]]
compound = "O=c1[nH]cnc2c([C@@H]3N[C@H](CO)[C@@H](O)[C@H]3O)c[nH]c12 [Forodesine, forodesine]"
target = "SARS-CoV-2 (Omicron variant, B.1.1.529/BA.2 sublineage)"
group_label = "met"


Input line: Find out if reported EC90 for CCC(CC)COC(=O)[C@H](C)N[P@](=O)(OC[C@H]1O[C@@](C#N)(c2ccc3c(N)ncnn23)[C@H](O)[C@@H]1O)Oc1ccccc1 [Remdesivir, remdesivir] is less than 10 µM
Output line: met

Input line: Find out if reported EC90 for COc1nc(N)nc2c1ncn2[C@@H]1O[C@H](CO)[C@@H](O)[C@@H]1O [Nelarabine, nelarabine] is less than 10 µM
Output line: met

Input line: Find out if reported EC90 for CC(C)=CCNc1ncnc2c1ncn2[C@@H]1O[C@H](CO)[C@@H](O)[C@H]1O [Riboprine, N^6-(2-Isopentenyl)adenosine] is less than 10 µM
Output line: met
